Entries annotated with measured % of inhibition of Wnt3a-induced luciferase activity (peptide at 1.10^-9 M)
tested-on: rFzd-2 (frizzled-2 receptor) (rat, UniProt Q08464 29-570)
Sequence (Q08464 29-570): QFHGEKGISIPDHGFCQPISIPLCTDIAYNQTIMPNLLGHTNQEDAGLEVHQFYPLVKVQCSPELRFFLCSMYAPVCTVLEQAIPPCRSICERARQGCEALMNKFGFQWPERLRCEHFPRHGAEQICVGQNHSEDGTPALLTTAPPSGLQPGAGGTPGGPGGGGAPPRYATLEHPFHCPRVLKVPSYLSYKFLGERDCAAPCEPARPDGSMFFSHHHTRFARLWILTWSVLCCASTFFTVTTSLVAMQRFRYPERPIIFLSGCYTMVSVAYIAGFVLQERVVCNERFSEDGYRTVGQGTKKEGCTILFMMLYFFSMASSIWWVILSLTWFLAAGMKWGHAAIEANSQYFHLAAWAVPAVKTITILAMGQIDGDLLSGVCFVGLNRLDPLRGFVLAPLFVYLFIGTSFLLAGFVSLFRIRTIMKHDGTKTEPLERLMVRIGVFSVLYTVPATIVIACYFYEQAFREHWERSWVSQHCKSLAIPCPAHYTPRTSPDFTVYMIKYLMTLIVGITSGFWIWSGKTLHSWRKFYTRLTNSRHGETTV
assay-protocol: cell-based or functional assay
Kindly provide the numeric value in % only, without the unit symbol.

- binder: "CNKTAEGMDGCEL [UM206 (5 S = A)]"
  reported-result: 87.3
- binder: "CNKASEGMDGCEL [UM206 (4 T = A)]"
  reported-result: 59.4

Continue with the binder presented below.
QUERY: Quote % of inhibition of Wnt3a-induced luciferase activity (peptide at 1.10^-9 M) reported for ANKTSEGMDGCEL [UM206 (1 C = A)] please.
RESULT: 82.6
